Tested on: A498
Experiment: NCI tumour cell line growth inhibition, 48 h
Activity calls are given as the source filed them. Rule as the data show it: active = GI50 up to about 1.1 µM and inactive = higher.
Overview of recorded GI50 for various compounds

{"columns": ["Compound", "Tgt", "GI50"],
 "data": [
  ["CC(CC[C@@]1(O)OC2C[C@H]3[C@@H]4CC[C@H]5CC(OC6OC(CO)C(OC7OC(CO)C(O)C(OC8OCC(O)C(O)C8O)C7OC7OC(CO)C(O)C(O)C7O)C(O)C6O)[C@H](O)CC5(C)[C@H]4CCC3(C)C2[C@@H]1C)COC1OC(CO)C(O)C(O)C1O (some centres undefined)", "A498", "18.9 µM (inactive)"],
  ["CCOC(=O)c1[nH]c2cccc3c2c1CC(Br)C3=O (centres undefined)", "A498", "17.7 µM (inactive)"],
  ["Cc1ccsc1/C=N/Nc1nc2ccccc2s1", "A498", "2.35 µM (inactive)"],
  ["CC1(Br)C(=O)NC(=O)N(C2CC(N=[N+]=[N-])C(CO)O2)C1N=[N+]=[N-] (centres undefined)", "A498", "> 100 µM (inactive)"],
  ["c1cc2nnc1SCCSCCCSCCS2", "A498", "> 100 µM (inactive)"],
  ["O=C1NCN(c2ccccc2)C12CCN(CC1COc3ccccc3O1)CC2 (centres undefined)", "A498", "71.6 µM (inactive)"],
  ["CCOC(=O)c1nnsc1NC(=O)NCCCCCCn1c(=O)n(CCCCCCNC(=O)Nc2snnc2C(=O)OCC)c(=O)n(CCCCCCNC(=O)Nc2snnc2C(=O)OCC)c1=O", "A498", "67.1 µM (inactive)"],
  ["Fc1cccc(F)c1C1SCc2nc3cc4ccccc4cc3n21 (centres undefined)", "A498", "21.2 µM (inactive)"],
  ["CNCC(=O)Nc1ccc2c(c1)C(=O)c1ccc(NC(=O)CNC)cc1C2=O", "A498", "14.9 µM (inactive)"],
  ["CN(C)CCCNc1cc(O)c2c(c1O)C(=O)c1ccccc1C2=O", "A498", "19.5 µM (inactive)"],
  ["C=C(C(=O)OC)[C@@H]1C[C@@H](OC(C)=O)C2=C[C@H](C[C@@]3(C)O[C@@H]3C3=CC(C)=C(O3)[C@H]1OC(C)=O)OC2=O", "A498", "16.9 µM (inactive)"],
  ["CC12CCC3(C1)[C@H](CC2=O)C[C@@H](OC(=O)c1ccccc1)C1C(C)(CO)CCC[C@@]13C (some centres undefined)", "A498", "3.12 µM (inactive)"],
  ["O=C1CCC(c2ccccc2)C(O)(C(=O)O)C1 (centres undefined)", "A498", "> 100 µM (inactive)"],
  ["O=C(COC(=O)c1cccc2c(=O)c3ccccc3[nH]c12)Nc1ccc(S(=O)(=O)Nc2ncccn2)cc1", "A498", "95.5 µM (inactive)"],
  ["Cc1cccc(C(C)(C)C)c1NC(=O)C(=O)C(C(=O)/C=C\\c1ccccc1)C1OC(=O)c2ccccc21 (centres undefined)", "A498", "> 100 µM (inactive)"],
  ["O=C(O)c1cc(-c2ccc3c(O)c(O)ccc3c2)ccc1O", "A498", "72.9 µM (inactive)"],
  ["Cc1nn(C2OC(CO)C(O)C(F)C2O)c(=O)[nH]c1=O (centres undefined)", "A498", "> 100 µM (inactive)"],
  ["Cc1ccc2c(c1)C(=O)N(N(C)C)CC(=O)N2", "A498", "> 100 µM (inactive)"],
  ["COc1ccc([Se]c2ccc(OC)cc2)cc1", "A498", "99.1 µM (inactive)"]
]}
